Tested on: Aβ-38
PROCEDURE_TEXT: Aβ-38 MSD 3-plex ELISA, conditioned media of 2B7 cells
Format: cell-based
MEASUREMENT_PARAMETERS: Homo sapiens, 5 hours treatment, read-out: Aβ 38 IC50
pIC50: −log10 of the molar value.
Would you mind telling me the reported pIC50 of each entry?

COMPOUND | MEASURED_ENDPOINT | TEST_VALUE
CCO[C@@H]([C@H]1C[C@@H](C)[C@H]2[C@H](O1)[C@H](O)[C@@]1(C)[C@@H]3CC[C@H]4C(C)(C)[C@@H](O[C@H]5CN(C6CCN(CCOC)CC6)CCO5)CC[C@@]45C[C@@]35CC[C@]21C)C(C)(C)O [Compound I-28] | pIC50 | 6.00 to 6.30

--- query ---
Look up pIC50: CCO[C@@H]([C@H]1C[C@@H](C)[C@H]2[C@H](O1)[C@H](O)[C@@]1(C)[C@@H]3CC[C@H]4C(C)(C)[C@@H](O[C@H]5CN(CCN(C)CCOC)CCO5)CC[C@@]45C[C@@]35CC[C@]21C)C(C)(C)O [Compound I-61]
6.00 to 6.30

---

Test system: Aβ-40
PROCEDURE_TEXT: Aβ-40 MSD 3-plex ELISA, conditioned media of 2B7 cells
Type: cell-based
MEASUREMENT_PARAMETERS: Homo sapiens, 5 hours treatment, inflection of dose response curve, read-out: Aβ 40 DR IC50 Inflection
Procedure: Assays were conducted to determine the ability of a Compound of Formula I to modulate […], and Aβ-38. Plates with capture antibodies were blocked for 1-2 hours at room temperature with 150 μL of the manufactures blocking reagent. […] Final Wash and Readout: • Washed wells 5× with MSD wash buffer; • Added 150 μL 2×MSD read buffer; • Read with MSD imager. Aβ peptide levels for each peptide were calculated from the standard curve using the MSD software provided with the MSD 2400 Imager. […]
Task for the reader: assign each of the following molecules its reported IC50.

Solved cases (5 shown):
CHEMICAL_STRING | TGT | IC50
CCO[C@@H]([C@H]1C[C@@H](C)[C@H]2[C@H](O1)[C@H](O)[C@@]1(C)[C@@H]3CC[C@H]4C(C)(C)[C@@H](O[C@H]5CN(CC6CN(CC7(C)COC7)C6)CCO5)CC[C@@]45C[C@@]35CC[C@]21C)C(C)(C)O | Aβ-40 | 1 to 5 µM
CCO[C@@H]([C@H]1C[C@@H](C)[C@H]2[C@H](O1)[C@H](O)[C@@]1(C)[C@@H]3CC[C@H]4C(C)(C)[C@@H](O[C@H]5CN(CCN6CC(F)C6)CCO5)CC[C@@]45C[C@@]35CC[C@]21C)C(C)(C)O | Aβ-40 | 1 to 5 µM
CCO[C@@H]([C@H]1C[C@@H](C)[C@H]2[C@H](O1)[C@H](O)[C@@]1(C)[C@@H]3CC[C@H]4C(C)(C)[C@@H](O[C@H]5CN(C(C)(C)C6CN(C7COC7)C6)CCO5)CC[C@@]45C[C@@]35CC[C@]21C)C(C)(C)O | Aβ-40 | > 5 µM
CCO[C@@H]([C@H]1C[C@@H](C)[C@H]2[C@H](O1)[C@H](O)[C@@]1(C)[C@@H]3CC[C@H]4C(C)(C)[C@@H](O[C@H]5CN(CC6CN(CC(C)(C)C)C6)CCO5)CC[C@@]45C[C@@]35CC[C@]21C)C(C)(C)O | Aβ-40 | 1 to 5 µM
CCO[C@@H]([C@H]1C[C@@H](C)[C@H]2[C@H](O1)[C@H](O)[C@@]1(C)[C@@H]3CC[C@H]4C(C)(C)[C@@H](O[C@H]5CN(CCN6CCC6)CCO5)CC[C@@]45C[C@@]35CC[C@]21C)C(C)(C)O | Aβ-40 | 1 to 5 µM

Answer for every listed entry: what is its IC50? The entries follow.
1. CCO[C@@H]([C@H]1C[C@@H](C)[C@H]2[C@H](O1)[C@H](O)[C@@]1(C)[C@@H]3CC[C@H]4C(C)(C)[C@@H](O[C@H]5CN(C6CN(CCF)C6)CCO5)CC[C@@]45C[C@@]35CC[C@]21C)C(C)(C)O
2. CCO[C@@H]([C@H]1C[C@@H](C)[C@H]2[C@H](O1)[C@H](O)[C@@]1(C)[C@@H]3CC[C@H]4C(C)(C)[C@@H](O[C@H]5CN(CCN(C)CCOC)CCO5)CC[C@@]45C[C@@]35CC[C@]21C)C(C)(C)O
3. CCO[C@@H]([C@H]1C[C@@H](C)[C@H]2[C@H](O1)[C@H](O)[C@@]1(C)[C@@H]3CC[C@H]4C(C)(C)[C@@H](O[C@H]5CN([C@H]6CCN(CC)C6=O)CCO5)CC[C@@]45C[C@@]35CC[C@]21C)C(C)(C)O
4. CCO[C@@H]([C@H]1C[C@@H](C)[C@H]2[C@H](O1)[C@H](O)[C@@]1(C)[C@@H]3CC[C@H]4C(C)(C)[C@@H](O[C@H]5CN(C6CNC6)CCO5)CC[C@@]45C[C@@]35CC[C@]21C)C(C)(C)O

1. > 5 µM
2. 1 to 5 µM
3. > 5 µM
4. > 5 µM

---

System: Aβ-38
PROCEDURE_TEXT: Aβ-38 MSD 3-plex ELISA, conditioned media of 2B7 cells
Assay type: cell-based
MEASUREMENT_PARAMETERS: Homo sapiens, 5 hours treatment, read-out: Aβ 38 IC50
pIC50: −log10 of the molar value.
MEASURED_ENDPOINT: pIC50

COMPOUND | pIC50
CCO[C@@H]([C@H]1C[C@@H](C)[C@H]2[C@H](O1)[C@H](O)[C@@]1(C)[C@@H]3CC[C@H]4C(C)(C)[C@@H](O[C@H]5CN(C6CCN(C)CC6)CCO5)CC[C@@]45C[C@@]35CC[C@]21C)C(C)(C)O [Compound I-29] | 6.30 to 7.00
CCO[C@@H]([C@H]1C[C@@H](C)[C@H]2[C@H](O1)[C@H](O)[C@@]1(C)[C@@H]3CC[C@H]4C(C)(C)[C@@H](O[C@H]5CN(C(C)(C)C6CN(C7COC7)C6)CCO5)CC[C@@]45C[C@@]35CC[C@]21C)C(C)(C)O [Compound I-15] | 6.00 to 6.30
CCO[C@@H]([C@H]1C[C@@H](C)[C@H]2[C@H](O1)[C@H](O)[C@@]1(C)[C@@H]3CC[C@H]4C(C)(C)[C@@H](O[C@H]5CN([C@H]6CCN(CC)C6=O)CCO5)CC[C@@]45C[C@@]35CC[C@]21C)C(C)(C)O [Compound I-1] | 6.00 to 6.30
CCO[C@@H]([C@H]1C[C@@H](C)[C@H]2[C@H](O1)[C@H](O)[C@@]1(C)[C@@H]3CC[C@H]4C(C)(C)[C@@H](O[C@H]5CN(C6CCN(C7COC7)CC6)CCO5)CC[C@@]45C[C@@]35CC[C@]21C)C(C)(C)O [Compound I-35] | 6.00 to 6.30
CCO[C@@H]([C@H]1C[C@@H](C)[C@H]2[C@H](O1)[C@H](O)[C@@]1(C)[C@@H]3CC[C@H]4C(C)(C)[C@@H](O[C@H]5CN(CCN6CCC6)CCO5)CC[C@@]45C[C@@]35CC[C@]21C)C(C)(C)O [Compound I-57] | 6.30 to 7.00
CCO[C@@H]([C@H]1C[C@@H](C)[C@H]2[C@H](O1)[C@H](O)[C@@]1(C)[C@@H]3CC[C@H]4C(C)(C)[C@@H](O[C@H]5CN(C6(C)CN(C7COC7)C6)CCO5)CC[C@@]45C[C@@]35CC[C@]21C)C(C)(C)O [Compound I-36] | 6.00 to 6.30

Now turn to the next compound.
Which pIC50 is listed for CCO[C@@H]([C@H]1C[C@@H](C)[C@H]2[C@H](O1)[C@H](O)[C@@]1(C)[C@@H]3CC[C@H]4C(C)(C)[C@@H](O[C@H]5CN(CCN(C)C)CCO5)CC[C@@]45C[C@@]35CC[C@]21C)C(C)(C)O [Compound I-59] ?
6.00 to 6.30

---

What IC50 was measured for each of the following?
System: Aβ-38
PROCEDURE_TEXT: Aβ-38 MSD 3-plex ELISA, conditioned media of 2B7 cells
Type: cell-based
MEASUREMENT_PARAMETERS: Homo sapiens, 5 hours treatment, read-out: Aβ 38 IC50

Worked set:
MOLECULE | IC50
CCO[C@@H]([C@H]1C[C@@H](C)[C@H]2[C@H](O1)[C@H](O)[C@@]1(C)[C@@H]3CC[C@H]4C(C)(C)[C@@H](O[C@H]5CN(CC6CN(CC7(C)COC7)C6)CCO5)CC[C@@]45C[C@@]35CC[C@]21C)C(C)(C)O [Compound I-26] | 501 to 1000 nM
CCO[C@@H]([C@H]1C[C@@H](C)[C@H]2[C@H](O1)[C@H](O)[C@@]1(C)[C@@H]3CC[C@H]4C(C)(C)[C@@H](O[C@H]5CN(C6CN(CCF)C6)CCO5)CC[C@@]45C[C@@]35CC[C@]21C)C(C)(C)O [Compound I-4] | 501 to 1000 nM
CCO[C@@H]([C@H]1C[C@@H](C)[C@H]2[C@H](O1)[C@H](O)[C@@]1(C)[C@@H]3CC[C@H]4C(C)(C)[C@@H](O[C@H]5CN(CCN6CCOCC6)CCO5)CC[C@@]45C[C@@]35CC[C@]21C)C(C)(C)O [Compound I-58] | 501 to 1000 nM

Sample CCO[C@@H]([C@H]1C[C@@H](C)[C@H]2[C@H](O1)[C@H](O)[C@@]1(C)[C@@H]3CC[C@H]4C(C)(C)[C@@H](O[C@H]5CN(C6CN(C(C)(C)C)C6)CCO5)CC[C@@]45C[C@@]35CC[C@]21C)C(C)(C)O [Compound I-14] — what was its IC50?
100 to 500 nM
